Sourced from PubChem BioAssay

experiment: small-molecule microarray binders of probe aEGFR, primary screen, biochemical, biotinylated probe, 635/667 nm fluorescence (AID 1097); conditions: higher = more signal;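 further: probe is a biotinylated anti-EGFR antibody binding compounds printed on slides; score combines fluorescence near 667 nm and signal to noise of each spot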

{"columns": ["molecule", "composite z-score"],
 "data": [
  ["CC(C)=NOC[C@@H](O)COCc1ccco1", -0.147],
  ["CCCNC(=O)OC[C@H]1O[C@H](CCON=C(C)CCC(=O)OC[C@H]2O[C@H](C#Cc3ccccc3)C=C[C@@H]2Oc2ccc(C)cc2)C=C[C@@H]1Oc1ccc(OC)cc1", -0.12],
  ["CC(C)=NOCc1ccc(-c2cn([C@@H]3COC[C@H]3O)nn2)cc1", -0.0025],
  ["CO[C@@H]1COC(=O)CC=C[C@H](C)COC(=O)[C@H](C)NC(=O)CC=C[C@H]1C", -0.157],
  ["C[C@@H](ON=C1[C@H]2CCn3c(=O)n(-c4ccccc4)c(=O)n3[C@H]2[C@H](O)[C@@H]2O[C@H]12)c1cn([C@H](CO)Cc2ccccc2)nn1", -0.194],
  ["CC(C)=NO[C@@H](C)c1cc(-c2c(C)cc(C)cc2C)no1", -0.101],
  ["CCOC(=O)NN=C1C[C@@H](O)[C@@H](O)[C@@H]2[C@@H]3C(=O)N(Cc4ccc5c(c4)OCO5)C(=O)[C@@H]3CC[C@@H]12", -0.148],
  ["CO[C@H]1COC(=O)[C@H](C)NC(=O)CC=C[C@@H](C)[C@H](OC)COC(=O)CC=C[C@@H]1C", 0.0556],
  ["CO[C@H]1COC(=O)CC=C[C@@H](C)COC(=O)[C@@H](OCc2ccccc2)C=C[C@@H]1C", -0.135],
  ["C#CCCCON=C1C[C@@H](O)[C@@H](O)[C@@H]2[C@@H]3C(=O)N(C4CCCCC4)C(=O)[C@@H]3CC[C@H]12", -0.0842],
  ["O=C(NN=C1C[C@@H](O)[C@@H](O)[C@@H]2[C@@H]3C(=O)N(Cc4ccc5c(c4)OCO5)C(=O)[C@@H]3CC[C@H]12)OCc1ccccc1", -0.0828],
  ["C[C@@H]1CC[C@@H](C(=O)O)N[C@H]1c1ccc(-c2ccco2)cc1", -0.115],
  ["CCOC(=O)NN=C1C[C@@H](O)[C@@H](O)[C@@H]2[C@@H]3C(=O)N(Cc4ccccc4)C(=O)[C@@H]3CC[C@@H]12", -0.282],
  ["CCOC(=O)[C@H](CC(C)C)NC(=O)CCC1CC(OC(=O)NCc2cccc3ccccc23)CC2(CCCC(COC(=O)NCc3ccccc3)O2)O1 (stereo partly drawn)", -0.182],
  ["C[C@@H](c1ccccc1)N1C(=O)[C@H]2[C@H]3[C@H](O)[C@H](O)CC(=O)[C@@H]3CC[C@H]2C1=O", 0.596],
  ["CCN1C(=O)[C@H]2[C@H]3[C@H](O)[C@H](O)CC(=NOC)[C@@H]3CC[C@H]2C1=O", -0.0581],
  ["CC(=O)OC[C@H]1O[C@H](C#CC(C)(C)C)C=C[C@@H]1OC(C)=O", 0.0168],
  ["Cc1ccc(S(=O)(=O)N[C@H]2COC(=O)[C@@H](C)COC(=O)[C@H](C)NC(=O)CC=C[C@H]2C)cc1", -0.0862]
]}
